Origin of the recorded values: paper PMC10844532

# procedure.details: Plasma pharmacokinetics of 10 WDD components after gavage of WDD (LC-MS/MS, Phoenix NCA and compartment model)
# Type: in vivo, SD rats
# experimental.setup: Sprague-Dawley, rat, plasma, po, 6.6 g/100 g, HTG: WDD 6.6 g/100 g by gavage, hyperlipidemia rat plasma, non-compartment, n = 6
quantity.name: half-life (h)

# count of solved cases: 2
O=C1C[C@@H](c2ccc(O)cc2)Oc2cc(O)cc(O)c21 ... 11.7
COc1ccc([C@@H]2CC(=O)c3c(O)cc(O[C@@H]4O[C@H](CO[C@@H]5O[C@@H](C)[C@H](O)[C@@H](O)[C@H]5O)[C@@H](O)[C@H](O)[C@H]4O)cc3O2)cc1O ... 4.19

P. C[n+]1cccc(C(=O)[O-])c1
Q. COc1ccc([C@@H]2CC(=O)c3c(O)cc(O)cc3O2)cc1O
Looking only at measured half-life, which entry is lower, P or Q ? Mark your answer with the label of the selected entry.
Q

---

# procedure.details: Plasma pharmacokinetics of 10 WDD components after gavage of WDD (LC-MS/MS, Phoenix NCA and compartment model)
# Type: in vivo, SD rats
# experimental.setup: Sprague-Dawley, po; LTG: WDD 2.2 g/100 g by gavage, hyperlipidemia rat plasma, non-compartment, n = 6
quantity.name: Cmax (ng/mL)

# count of solved cases: 5
COc1ccc(-c2cc(=O)c3c(OC)c(OC)c(OC)c(OC)c3o2)cc1 ... 6.8
COc1ccc([C@@H]2CC(=O)c3c(O)cc(O[C@@H]4O[C@H](CO[C@@H]5O[C@@H](C)[C@H](O)[C@@H](O)[C@H]5O)[C@@H](O)[C@H](O)[C@H]4O)cc3O2)cc1O ... 34.6
COc1ccc([C@@H]2CC(=O)c3c(O)cc(O)cc3O2)cc1O ... 223
CC1(C)[C@@H](O)CC[C@]2(C)[C@H]3C(=O)C=C4[C@@H]5C[C@@](C)(C(=O)O)CC[C@]5(C)CC[C@@]4(C)[C@]3(C)CC[C@@H]12 ... 2940
O=C(/C=C/c1ccc(O)cc1)c1ccc(O)cc1O ... 16.2

1. CC1(C)[C@@H](O[C@H]2O[C@H](C(=O)O)[C@@H](O)[C@H](O)[C@H]2O[C@@H]2O[C@H](C(=O)O)[C@@H](O)[C@H](O)[C@H]2O)CC[C@]2(C)[C@H]3C(=O)C=C4[C@@H]5C[C@@](C)(C(=O)O)CC[C@]5(C)CC[C@@]4(C)[C@]3(C)CC[C@@H]12
2. O=C1C[C@@H](c2ccc(O)cc2)Oc2cc(O)cc(O)c21
Identify the entry with the larger Cmax. Options: 1 and 2 Mark your answer with the label of the selected entry.
2
(2: 110 ng/mL, 1: 20.6 ng/mL)

1. C[n+]1cccc(C(=O)[O-])c1
2. C[C@@H]1O[C@@H](O[C@H]2[C@H](Oc3cc(O)c4c(c3)O[C@H](c3ccc(O)cc3)CC4=O)O[C@H](CO)[C@@H](O)[C@@H]2O)[C@H](O)[C@H](O)[C@H]1O
Identify the entry with the larger Cmax. Options: 1 and 2 Mark your answer with the label of the selected entry.
1

---

# procedure.details: Plasma pharmacokinetics of 10 WDD components after gavage of WDD (LC-MS/MS, Phoenix NCA and compartment model)
# Format: in vivo, SD rats
# experimental.setup: Sprague-Dawley, rat, plasma, po, 2.2 g/100 g, LTG: WDD 2.2 g/100 g by gavage, hyperlipidemia rat plasma, non-compartment, n = 6
quantity.name: half-life (h)

a. CC1(C)[C@@H](O[C@H]2O[C@H](C(=O)O)[C@@H](O)[C@H](O)[C@H]2O[C@@H]2O[C@H](C(=O)O)[C@@H](O)[C@H](O)[C@H]2O)CC[C@]2(C)[C@H]3C(=O)C=C4[C@@H]5C[C@@](C)(C(=O)O)CC[C@]5(C)CC[C@@]4(C)[C@]3(C)CC[C@@H]12
b. CC1(C)[C@@H](O)CC[C@]2(C)[C@H]3C(=O)C=C4[C@@H]5C[C@@](C)(C(=O)O)CC[C@]5(C)CC[C@@]4(C)[C@]3(C)CC[C@@H]12
Looking only at measured half-life, which entry is lower, a or b ? Mark your answer with the label of the selected entry.
b

P. C[C@@H]1O[C@@H](O[C@H]2[C@H](Oc3cc(O)c4c(c3)O[C@H](c3ccc(O)cc3)CC4=O)O[C@H](CO)[C@@H](O)[C@@H]2O)[C@H](O)[C@H](O)[C@H]1O
Q. O=C1C[C@@H](c2ccc(O)cc2)Oc2cc(O)cc(O)c21
Identify the entry with the larger half-life. Options: P and Q Mark your answer with the label of the selected entry.
Q
(Q: 12.5 h, P: 6.13 h)

1. C[n+]1cccc(C(=O)[O-])c1
2. O=C(/C=C/c1ccc(O)cc1)c1ccc(O)cc1O
Identify the entry with the larger half-life. Options: 1 and 2 Mark your answer with the label of the selected entry.
2

1. COc1ccc([C@@H]2CC(=O)c3c(O)cc(O)cc3O2)cc1O
2. COc1ccc(-c2cc(=O)c3c(OC)c(OC)c(OC)c(OC)c3o2)cc1
Looking only at measured half-life, which entry is lower, 1 or 2 ? Mark your answer with the label of the selected entry.
1
